Would you mind telling me the reported pIC50 of each entry?
tested on: KM-12 cells; assay: KM-12 anchorage independent growth in alginate; assay type: cell-based; conditions: alginate, 72 hours, colony formation; read-out: IC50 KM-12 anchorage independent growth
In plain terms, pIC50 is the concentration in mol/L turned into minus its base-10 logarithm.

Asked: Could you tell me which pIC50 is on file for "Cn1ncc2cc(Oc3ccc(NC(=O)c4ccc(CO)n(-c5ccc(F)cc5)c4=O)cc3F)c(-c3cn[nH]c3)cc21" ?
Given back: 6.69

Asked: Name the recorded pIC50 for "Cc1ccc(C(=O)Nc2ccc(Oc3cc4cn[nH]c4cc3-c3cn[nH]c3)c(F)c2)c(=O)n1-c1ccc(F)cc1" .
Given back: 7.10

* * *

system: KM-12 cells; test: KM-12 anchorage dependent cell proliferation (CellTiter-Glo); assay type: cell-based; details: 72 hours, CellTiter-Glo, 2% FBS; read-out: IC50 KM-12 cell proliferation (anchorage dependent)
PARAMETER_MEASURED: IC50
Please answer in the form of a number followed by its unit of measurement.

Asked: Which IC50 is listed for "Cc1ccc(C(=O)Nc2ccc(Oc3cc4cn[nH]c4cc3-c3cn[nH]c3)c(F)c2)c(=O)n1-c1ccc(F)cc1" ?
Given back: 16 nM

Asked: Can you look up the measured IC50 of "Cn1ncc2cc(Oc3ccc(NC(=O)c4ccc(CO)n(-c5ccc(F)cc5)c4=O)cc3F)c(-c3cn[nH]c3)cc21" for me?
Given back: 102 nM

* * *

target: NTRK1 (TrkA) (Homo sapiens, UniProt P04629); test: biochemical
Sequence (P04629 33-796): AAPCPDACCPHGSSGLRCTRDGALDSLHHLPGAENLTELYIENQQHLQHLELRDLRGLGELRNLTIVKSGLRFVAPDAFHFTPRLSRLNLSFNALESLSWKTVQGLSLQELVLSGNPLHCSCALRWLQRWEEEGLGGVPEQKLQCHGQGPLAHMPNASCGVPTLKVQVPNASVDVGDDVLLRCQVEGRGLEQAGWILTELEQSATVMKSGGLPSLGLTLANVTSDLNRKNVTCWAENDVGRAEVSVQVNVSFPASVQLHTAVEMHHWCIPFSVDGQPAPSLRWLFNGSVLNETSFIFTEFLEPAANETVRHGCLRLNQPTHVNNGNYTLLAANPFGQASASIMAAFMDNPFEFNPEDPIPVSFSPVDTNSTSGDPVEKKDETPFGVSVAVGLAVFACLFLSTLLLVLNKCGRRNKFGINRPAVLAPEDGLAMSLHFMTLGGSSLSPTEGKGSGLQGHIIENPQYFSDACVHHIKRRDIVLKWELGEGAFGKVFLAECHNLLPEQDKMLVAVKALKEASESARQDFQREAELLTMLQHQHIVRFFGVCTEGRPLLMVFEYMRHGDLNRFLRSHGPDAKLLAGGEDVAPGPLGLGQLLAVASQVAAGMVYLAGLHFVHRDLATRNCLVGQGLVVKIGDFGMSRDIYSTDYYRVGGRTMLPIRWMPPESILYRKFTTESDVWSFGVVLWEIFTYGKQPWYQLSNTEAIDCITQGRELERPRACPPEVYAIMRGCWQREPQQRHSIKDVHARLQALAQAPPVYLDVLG
PARAMETER_MEASURED: Kd
Please don't drop the unit; write it after the number.

Asked: What value of measured Kd is listed for "Cc1ccc(C(=O)Nc2ccc(Oc3cc4cnn(C)c4cc3-c3cn[nH]c3)c(F)c2)c(=O)n1-c1ccc(F)cc1" ?
Given back: 20 nM

* * *

molecular target: NTRK3 (TrkC) (Homo sapiens, UniProt Q16288); test: biochemical
Sequence (Q16288 32-839): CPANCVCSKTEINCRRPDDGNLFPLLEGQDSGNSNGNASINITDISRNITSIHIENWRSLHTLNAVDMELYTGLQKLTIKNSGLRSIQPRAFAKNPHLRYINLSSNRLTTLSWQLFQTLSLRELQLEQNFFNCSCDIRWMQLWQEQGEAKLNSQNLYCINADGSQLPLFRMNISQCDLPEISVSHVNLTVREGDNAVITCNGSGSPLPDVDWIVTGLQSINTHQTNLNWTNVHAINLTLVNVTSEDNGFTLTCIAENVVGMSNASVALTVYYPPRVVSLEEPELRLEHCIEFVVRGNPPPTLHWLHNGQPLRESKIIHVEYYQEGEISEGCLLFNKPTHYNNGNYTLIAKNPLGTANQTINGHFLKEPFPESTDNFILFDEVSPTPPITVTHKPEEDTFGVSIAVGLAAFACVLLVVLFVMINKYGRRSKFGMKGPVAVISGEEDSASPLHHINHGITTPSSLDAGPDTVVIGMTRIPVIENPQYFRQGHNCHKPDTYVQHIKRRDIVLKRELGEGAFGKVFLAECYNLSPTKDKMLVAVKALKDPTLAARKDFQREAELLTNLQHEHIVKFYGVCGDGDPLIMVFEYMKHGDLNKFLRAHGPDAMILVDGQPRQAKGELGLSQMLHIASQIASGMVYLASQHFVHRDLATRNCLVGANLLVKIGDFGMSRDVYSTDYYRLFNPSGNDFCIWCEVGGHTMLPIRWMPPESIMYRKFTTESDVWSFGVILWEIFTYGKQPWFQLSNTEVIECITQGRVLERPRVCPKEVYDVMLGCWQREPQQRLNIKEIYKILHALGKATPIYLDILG
PARAMETER_MEASURED: pKd
Formally, pKd is defined as -log10 of the concentration c, with c in mol/L.

Asked: I have this molecule here, Cc1ccc(C(=O)Nc2ccc(Oc3cc4cnn(C)c4cc3-c3cn[nH]c3)c(F)c2)c(=O)n1-c1ccc(F)cc1 [Merestinib] , and I need its recorded pKd.
Given back: 7.27

* * *

# pIC50 measurements, system: NTRK1 (TrkA) (Homo sapiens, UniProt P04629)
In simple prose, pIC50 is minus the logarithm base ten of a concentration in moles per litre.

Asked: Record lookup: for NTRK1 (TrkA) (Homo sapiens, UniProt P04629), what pIC50 belongs to "Cn1ncc2cc(Oc3ccc(NC(=O)c4ccc(CO)n(-c5ccc(F)cc5)c4=O)cc3F)c(-c3cn[nH]c3)cc21" ?
Given back: 7.04

Asked: Enter reported pIC50 observed with NTRK1 (TrkA) (Homo sapiens, UniProt P04629) for "Cc1ccc(C(=O)Nc2ccc(Oc3cc4cn[nH]c4cc3-c3cn[nH]c3)c(F)c2)c(=O)n1-c1ccc(F)cc1"
Given back: 7.92

Asked: Given the entry "Cc1ccc(C(=O)Nc2ccc(Oc3cc4cnn(C)c4cc3-c3cn[nH]c3)c(F)c2)c(=O)n1-c1ccc(F)cc1" , what pIC50 was observed with NTRK1 (TrkA) (Homo sapiens, UniProt P04629)?
Given back: 7.77
